Tested on: CEM cells HIV-1 protection, formazan growth assay
assaySummary: NCI AIDS Antiviral Assay
appliedConditions: measured here: growth of uninfected CEM cells
Below: a set of entries, each annotated with reported IC50.

Sample answers from the record:
In [3]: df
Out[3]:
                                   compound                                  testedon  measvalue
0  OC1OCC(COc2cc(Cl)c(Cl)cc2Cl)OC1O (stereo unspecified)  CEM cells HIV-1 protection, formazan growth assay  > 30.2 µM
1  CCOc1ncn(-c2ccc(NC(=S)NC3OC(CO)C(O)C(O)C3O)cc2)n1 (stereo unspecified)  CEM cells HIV-1 protection, formazan growth assay   > 200 µM
2  Cc1cc(N=Nc2ccc(C(=O)Nc3ccc4cc(S(=O)(=O)O)ccc4c3)cc2)c(N)c(N=Nc2ccc(N=Nc3ccc(O)c(C(=O)O)c3)cc2)c1N  CEM cells HIV-1 protection, formazan growth assay   > 100 µM

Consider the compound CCC(C)c1c(NS(=O)(=O)c2ccc(C)cc2)o[nH]c1=O (stereo unspecified) and give its measured IC50.
> 200 µM

Note, next up: CC1(C)CNC[C@](C)(OCc2ccccc2)N1
> 200 µM

// repeat for COc1ccc(CNc2nc3ccccc3nc2C(=O)O)cc1OC and report
95.5 µM

Further, for CCN(CC)CCC(=O)NC1c2ccc(Cl)cc2Oc2c(C)cccc21 (stereo unspecified) ?
9.55 µM

###

Tested on: CEM cells HIV-1 protection, formazan growth assay
assaySummary: NCI AIDS Antiviral Assay;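 active means compounds giving half or more protection of infected cells from virus-caused growth loss, again on retest; inactive means the rest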
Method: The ability of compounds to protect human CEM cells from HIV-1 infection is measured as a screen for new compounds capable of inhibiting the HIV virus. Five concentrations of drug were tested on uninfected and infected cells and cell growth was measured using a soluble formazan assay. […] Compounds that provided at least 50% protection were retested. Compounds that provided at least 50% protection on retest were listed as moderately active. […]
Response enum: 1 (active), -1 (inactive)

Below, 2 compounds whose answers are already recorded.
>>> df
                                   compound  assignedclass
0  CCCc1cc(=O)oc2c3c(c4c(c12)OC(C)(C)C=C4)O[C@H](C)C(C)[C@@H]3O (stereo not given in full)              1
1  COc1ccc2cc1Oc1cc3c(cc1OC)CC[N+](C)(C)C3Cc1ccc(cc1)Oc1c(OC)c(OC)cc3c1C(C2)[N+](C)(C)CC3 (stereo not given)             -1

For this compound, state the assay outcome: N#CC12C(=O)N3C(=NC(c4ccco4)NC3c3ccco3)C1(C#N)C(c1ccco1)NC1=C2CCCC1 (stereo not given)
-1

And the next one, Nc1[nH]c(=S)nc2nc3c4ccccc4c4ccccc4c3nc12 ?
-1

Next compound: NC(=O)c1cc(/C=C/c2ccccc2)on1
-1

###

Test system: CEM cells HIV-1 protection, formazan growth assay
assaySummary: NCI AIDS Antiviral Assay
appliedConditions: measured here: growth of uninfected CEM cells
Quick list: IC50 per entry.

In [3]: df
Out[3]:
                                   compound  measvalue
0  CN1C(=O)C2CCCN2C(=O)C1(C)NC(=O)OCc1ccccc1 (stereo not drawn)   > 269 µM

Could you tell me which IC50 is on file for OCC12C=CC(C1)c1ccccc12 (stereo not drawn) ?
> 251 µM

Thanks! And CC1CCC(=O)C(C(=O)CC2CC(=O)NC(=O)C2)C1 (stereo not drawn) ?
> 200 µM

###

System: CEM cells HIV-1 protection, formazan growth assay
assaySummary: NCI AIDS Antiviral Assay;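 active = compounds giving half or more protection of infected cells from virus-caused growth loss, again on retest; inactive = the rest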
Protocol: The ability of compounds to protect human CEM cells from HIV-1 infection is measured as a screen for new compounds capable of inhibiting the HIV virus. Five concentrations of drug were tested on uninfected and infected cells and cell growth was measured using a soluble formazan assay. […] Compounds that provided at least 50% protection were retested. Compounds that provided at least 50% protection on retest were listed as moderately active. […]
Hello, when you answer, please use one of the following outcomes: active, inactive

Example cases with answers are listed next.
In [3]: df
Out[3]:
                                   compound  assignedclass
0      O=[As](O)(O)c1ccc(N=Nc2ccc(O)cc2)cc1       inactive
1  N=S(=O)(c1ccccc1)c1ccccc1[N+](=O)[O-] (centres undefined)         active
2  CC(C)(C)C1CCC2c3c([nH]c4ccccc34)C3C(=O)N(c4ccc(C(=O)O)cc4)C(=O)C3C2C1 (centres undefined)       inactive

Check the results log: what was the call for C/C(=N\N=C(N)N)C(CN(CC(C)C)CC(C)C)C(=O)Nc1ccc(C)cc1C (centres undefined) ?
inactive

Repeat with O=C1CCC2C(O)c3cc4c(cc3C(c3ccc5c(c3)OCO5)N12)OCO4 (centres undefined)
inactive

# repeat for NC(=O)c1ccc(NCC2=CC(=O)C=CC2=O)cc1
active

###

Entries and their measured IC50 follow.
System: CEM cells HIV-1 protection, formazan growth assay
assaySummary: NCI AIDS Antiviral Assay
appliedConditions: measured here: growth of uninfected CEM cells

// known answers, use as guide
>>> print(df.to_string())
                                   compound  measuredmetric  measvalue
0         CCOC(C[C@H](O)[C@H]1COC(=S)S1)OCC            IC50   > 200 µM
1  CCOC(=O)/C(C1=N[C@H](C(=O)OCC)CS1)=C(\O)c1ccccc1            IC50   > 145 µM
2  [N-]=[N+]=NC1C2CC3CC(C2)CC1C3 (centres undefined)            IC50  > 77.6 µM

Consider the record given below.
Fill in the blank: the reported IC50 of O=c1c(/C=N/OCCCCO/N=C/c2cc3c(cc2[N+](=O)[O-])OCO3)coc2c(Cl)cc(Cl)cc12 is ____.
75.9 µM

###

Tested on: CEM cells HIV-1 protection, formazan growth assay
assaySummary: NCI AIDS Antiviral Assay
appliedConditions: measured here: growth of uninfected CEM cells
pIC50: −log10 of the molar value.
pIC50: recorded values

Field: example entries. Status: answers known.
>>> print(df.to_string())
                                   molecule  measvalue
0  CCOC(=O)C(C)(C)Oc1ccc2c(-c3ccc(Cl)cc3)cc(=O)oc2c1     < 4.87
1                Brc1ccc2noc(-c3ccccc3)c2c1     < 5.14
2           Cc1ccc(C(=O)/C=C/c2ccccc2Cl)cc1     < 5.25
3  C#CC1(O)CCC2[C@@H]3CCc4cc(Oc5nc(F)nc(-c6c7ccccc7cn6C)n5)ccc4C3CC[C@@]21C (some centres not stated)     < 5.00
4  CCc1ccccc1NC(=O)C1=C(C)NC(C)=C(C(=O)Nc2ccccc2CC)C1c1cccc([N+](=O)[O-])c1     < 4.72
5  COc1cccc2c1OC1Sc3ccccc3-c3nn(-c4ccccc4)c-2c31 (configuration not stated)     < 5.15

Would you kindly look at the next entry?
Which pIC50 value belongs to CCC1=CCC(P(=O)(c2ccccc2)c2ccccc2)CC1C (configuration not stated) ?
< 4.94

###

Test system: CEM cells HIV-1 protection, formazan growth assay
assaySummary: NCI AIDS Antiviral Assay
measuredMetric: EC50

Solved cases (4 shown):
>>> print(df.to_string())
                                   compound  measvalue
0  COC(CN(C(=O)c1ccccc1)C1CCC2(SCCS2)c2[nH]c3ccccc3c21)OC (stereo not given)   > 200 µM
1   ClC(Cl)(Cl)SSC(=Nc1ccccc1)SSC(Cl)(Cl)Cl   > 200 µM
2       COc1ccc2c(c1)C(N)=C(c1ccccc1OC)C2=O   > 200 µM
3  CN(CCS(=O)(=O)N1C(=O)C2CCCN2C(=O)[C@@H]1Cc1ccccc1)C(=O)OCc1ccccc1 (stereo not given in full)  > 50.1 µM

Please find the next compound below.
# input compound: Fc1ccc2c(c1)CN(CCN1COc3ccc(F)cc3C1)CO2 ; wanted: its EC50
> 8.13 µM

###

Test system: CEM cells HIV-1 protection, formazan growth assay
assaySummary: NCI AIDS Antiviral Assay
pEC50: −log10 of the molar value. Where a SMILES comes first, the peptide text is derived from it. [ ]: non-standard residue; d: D form. The star is where a group is joined. Nle = CCCC[CH](N)C(=O)O; Cbz = O=C(OCc1ccccc1)*; OBn = c1ccc(CO*)cc1
Listed next: entries and their corresponding pEC50.

Recorded pEC50 of CC(=O)NC1C(=O)N(Cc2ccccc2)[C@@H]1COC(C)(C)C (stereo partly specified) , please.
< 3.09

Same question, CCOC(=O)C(c1c(O)c2ccccc2oc1=O)c1c(O)c2ccccc2oc1=O this time
< 3.21

Would you kindly repeat that for Cn1ncc(NCCn2cnc3c2c(=O)n(C)c(=O)n3C)c(Cl)c1=O ?
< 3.70

Please answer likewise for CCCCC(NC(=O)C1CCCN1C(=O)OCc1ccccc1)C(=O)OCc1ccccc1 (stereo not drawn) (Cbz-Pro-[Nle]-OBn; configuration not given here)
< 4.38
